Below, each entry is listed alongside its reported Population Tubulin-Different-Phenotype (%).
Test system: HEK-293T
ASSAY TEXT: Multiplex assay against HEK293T
Type: toxicity, cell-based
DETAILS: human, 24 h, 1 µM, compound concentration 1 uM, replicate 2
PROPERTY NAME: Population Tubulin-Different-Phenotype (%)

• N#Cc1c(N)nc(SCc2csc(-c3ccc(Cl)cc3)n2)c(C#N)c1-c1ccc(OCCO)cc1 [CAPADENOSON] = 23
• COc1ccccc1N1CCN(CCCCNC(=O)c2ccc3ccccc3c2)CC1.Cl = 26
• Cc1ccc(F)cc1C(=O)Nc1ccc(C(=O)N2Cc3cccn3Cc3ccccc32)c(Cl)c1 [LIXIVAPTAN] = 22
• COc1c(C)cc(NC(=O)c2nn(Cc3ccc(F)cc3)c3c2CN(C(=O)c2ccc[nH]2)C[C@]3(C)C(N)=O)cc1C = 16
• Cc1ccc(C(C)(O)c2nc3ccccc3s2)c(C)c1 (configuration not stated) = 16
• COc1cc(C(=O)N(CCCc2ccccc2)Cc2ccc(CC(=O)O)cc2)cc(OC)c1C = 10
• COc1ccc2c(c1)C(C(=O)N(Cc1ccc(N(C)C)cc1)c1ccc(C(C)C)cc1)CCC2.Cl (configuration not stated) = 11
• c1cc(OCCCN2CCCCC2)ccc1CN1CCCCC1 [JNJ-5207852] = 12
• CSc1ccccc1N1CCN(CCCCCC(=O)NC2CCCc3ccccc32)CC1.Cl (configuration not stated) = 44
• O=C(NCC(=O)N1CC[C@H](N[C@H]2CC[C@@](O)(c3ccc(-c4ncccn4)cn3)CC2)C1)c1cccc(C(F)(F)F)c1 [PF-4136309] = 13
• CN(C)c1ccnc2sc3c(=O)n(N4CCCCCC4)cnc3c12 = 22
• CCNC1(C(N)=O)CCN(c2ncnc3c2nc(-c2ccccc2Cl)n3-c2ccc(Cl)cc2)CC1 [OTENABANT] = 41
• CC(C)(C)c1ccc(S(=O)(=O)Nc2ccc(Cl)cc2C(=O)c2cc[n+]([O-])cc2)cc1 [VERCIRNON] = 16
• Cc1ccccc1C(=O)Nc1ccc(C(=O)N2CCCC(N(C)C)c3ccccc32)cc1.Cl (configuration not stated) = 19
• COc1cc(NC(=O)CCN2CCC(OC(=O)Nc3ccccc3-c3ccccc3)CC2)c(Cl)cc1CNC[C@H](O)c1ccc(O)c2[nH]c(=O)ccc12 [BATEFENTEROL] = 27
• O=C(O)Cc1ccccc1Nc1c(Cl)cccc1Cl [DICLOFENAC] = 9
• CCOc1c2c(c(OCC)c3ncccc13)CN(c1ccc(CS(=O)(=O)NC(=O)Cc3ccccc3OC)cc1C)C2=O = 10
• CCCC(CCC)C(=O)O [VALPROIC ACID] = 10
• CN1CCN(c2nc3cc(C(F)(F)F)ccc3n3cccc23)CC1.O=C(O)/C=C\C(=O)O.O=C(O)/C=C\C(=O)O = 25
• CNC[C@H](O)c1ccc(O)c(O)c1 [EPINEPHRINE] = 18
• CC1(COc2ccc3c(c2)ncn3-c2ccc3cccc(N4CCC(N)CC4)c3n2)COC1 [CRENOLANIB] = 35
• CSCC[C@H](NC=O)C(=O)N[C@@H](CC(C)C)C(=O)N[C@@H](Cc1ccccc1)C(=O)O = 12
• CN1CCN2c3ncccc3Cc3ccccc3C2C1 (configuration not stated) [MIRTAZAPINE] = 17
• O=C1COc2nccc(-c3ccccc3F)c2CN1Cc1cc(C(F)(F)F)cc(C(F)(F)F)c1 = 12
• Cl.Clc1ccc2nsnc2c1NC1=NCCN1 [TIZANIDINE HYDROCHLORIDE] = 15
• CCCn1c(=O)c2[nH]c(C3CCCC3)nc2n(CCC)c1=O = 19
• Cc1ccc(-c2ccc(F)cc2COc2ccc(CCC(=O)O)cc2)cc1 = 13
• Cc1ccc(/C(=C\CN2CCCC2)c2ccccn2)cc1 [TRIPROLIDINE] = 9
• Oc1c(CN2CCN(c3ccccn3)CC2)cc(Cl)c2cccnc12 = 13
• CC(=O)NCCc1c(Cc2ccccc2)[nH]c2ccccc12 [LUZINDOLE] = 18
• Cc1nc2ccc(Oc3ccc(F)cc3)cc2c(=O)n1C[C@H]1CCCN(C(C)C)C1.Cl = 20
• N[C@@]1(C(=O)O)CO[C@H]2[C@H](C(=O)O)[C@H]21 [LY-379268] = 13
